# credit: patent US20110105514A1

compounds and their reported IC50
ASSAYED SYSTEM: human orexin-1 receptor (Homo sapiens, UniProt O43613)
Construct: expressed in transfected cells; host or cells: Chinese hamster ovary (CHO) cells
Sequence (O43613 whole entry): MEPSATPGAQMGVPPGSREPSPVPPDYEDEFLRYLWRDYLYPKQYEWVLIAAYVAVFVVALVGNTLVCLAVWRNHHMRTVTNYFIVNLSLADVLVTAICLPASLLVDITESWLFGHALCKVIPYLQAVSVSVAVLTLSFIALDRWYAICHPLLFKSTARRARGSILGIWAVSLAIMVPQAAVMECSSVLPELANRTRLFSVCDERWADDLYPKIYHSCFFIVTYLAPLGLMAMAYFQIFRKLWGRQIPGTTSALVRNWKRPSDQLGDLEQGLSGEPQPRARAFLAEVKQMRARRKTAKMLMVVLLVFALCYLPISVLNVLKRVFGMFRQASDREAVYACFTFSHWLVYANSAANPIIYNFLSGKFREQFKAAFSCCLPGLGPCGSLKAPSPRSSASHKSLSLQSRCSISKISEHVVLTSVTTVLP
METHOD DESCRIPTION: FLIPR calcium assay of orexin receptor antagonistic activity, CHO cells expressing the human orexin-1 receptor
Assay type: cell-based
CONDITION DESCRIPTION: 3 nM orexin-A as agonist; value not normalized; read-out: OX1 IC50
MEASURED PROPERTY: IC50 (nM)

{"COMPOUND": "CNC(=O)[C@@H](c1ccccc1)N1CCn2c(SC)nc(Cl)c2[C@@H]1CCc1ccc(C(F)(F)F)c(F)c1F", "MEASURED PROPERTY": "IC50", "READING UNIT": "nM", "TEST VALUE": 56}
{"COMPOUND": "CCc1nc(Cl)c2n1CCN([C@@H](C(=O)NC)c1ccccc1)[C@H]2CCc1cccc(OC(F)F)c1", "MEASURED PROPERTY": "IC50", "READING UNIT": "nM", "TEST VALUE": 45}
{"COMPOUND": "CNC(=O)[C@@H](c1ccccc1)N1CCn2c(C(F)(F)F)nc(C)c2[C@@H]1CCc1ccc(C(F)(F)F)cc1 [Example 13a]", "MEASURED PROPERTY": "IC50", "READING UNIT": "nM", "TEST VALUE": 259}
{"COMPOUND": "CNC(=O)[C@@H](c1ccccc1)N1CCn2c(C3CC3)nc(Cl)c2[C@@H]1CCc1ccc(Cl)c(F)c1", "MEASURED PROPERTY": "IC50", "READING UNIT": "nM", "TEST VALUE": 43}
